# Method: in vitro
# Condition Parameters: human, uninfected MT-4 cells, CC50 (nM), same protocol as Test A, CellTiter-Glo
Output MET for records whose CC50 at 5 days is lower than 10000 nM, NOT MET for records at or above 10000 nM.

NC(=O)c1cc(-c2cccnc2[C@H](Cc2cc(F)cc(F)c2)NC(=O)Cn2nc(C(F)F)c3c2CC2CC32)ccc1F (single isomer, unassigned) [Example 248]
NOT MET

Bench note: check whether NC(=O)c1cc(-c2cccnc2[C@H](Cc2cc(F)cc(F)c2)NC(=O)Cn2ccnc2-c2ccccc2)ccc1F shows CC50 at 5 days below 10000 nM NOT MET
